meta.source: patent US9950993B2

Tested on: Escherichia coli W4573
protocol.details: Test A: MIC-based assay for efflux pump inhibition (enhancement of minocycline MIC)
Assay type: cell-based
condition.parameters: ratio of minocycline MIC in absence to MIC in presence of test compound, test compound at 12.5 ug/ml (27-48 μM)
Overview of reported Enhancement across a group of compounds:
measured.attribute: Enhancement

>>> value("NCCC[C@@H](N)CNC(=O)C(CCc1ccccc1)CCc1ccccc1 [Example 2]")
64
>>> value("NCCC[C@H](N)CNC(=O)CC(Cc1ccccc1)Cc1ccccc1 [Example 12]")
16
>>> value("NC[C@H](N)CNC(=O)C(CCc1ccccc1)CCc1ccccc1 [Example 4]")
1
>>> value("NCC[C@H](N)CNC(=O)C(CCc1ccccc1)CCc1ccccc1 [Example 3]")
8
>>> value("NCCC[C@H](N)CNC(=O)C(c1ccccc1)c1ccccc1 [Example 8]")
4
>>> value("NC[C@@H](N)CCCNC(=O)C(CCc1ccccc1)CCc1ccccc1 [Example 5]")
2
>>> value("NCCC[C@H](N)CNC(=O)CCCc1ccccc1 [Example 10]")
4
>>> value("NCCC[C@H](N)CNC(=O)C(CCc1ccccc1)CCc1ccccc1 [Example 1]")
8
>>> value("NCCC[C@H](N)CNC(=O)C(CCc1ccccc1)Cc1ccccc1 (stereo partly shown) [Example 6]")
4
>>> value("NCCC[C@H](N)CNC(=O)CC(c1ccccc1)c1ccccc1 [Example 9]")
8
>>> value("COc1ccc(CCC(CCc2ccccc2)C(=O)NC[C@@H](N)CCCN)cc1 (stereo partly shown) [Example 11]")
4
>>> value("NCCC[C@H](N)CNC(=O)C(Cc1ccccc1)Cc1ccccc1 [Example 7]")
8
>>> value("NCCC[C@H](N)CNC(=O)CC(CCc1ccccc1)CCc1ccccc1 [Example 13]")
512
